Test system: MDA-MB-468 breast
Protocol: NCI-60 one-dose screen, 48 h
Condition Context: 10 µM unless noted
Compounds without any hit were thinned out: in the full panel of roughly 83,000, 20% have a hit. The source made the active and inactive calls. Rule for the calls: active = growth percent below 10; inactive = the rest.
Labels: y for active, n for inactive

1. COc1ccc2c(CCc3ccc(Cl)cc3)c3[n+](cc2c1OC)CCc1cc2c(cc1-3)OCO2 : y
2. O=C(/C=C/c1ccc(B(O)O)cc1)/C=C/c1ccc(B(O)O)cc1 : y
3. CN(C)CCCNC(=O)c1cncnc1Nc1ccc2c(ccn2Cc2cccc(F)c2)c1 : n
4. CCOC(=O)c1cccc(NC2=C(Cl)C(=O)C(C)=C(C)C2=O)c1 : y
5. Cc1nn(CCO)c(C)c1N=[N+]([O-])c1c(C)nn(CCO)c1C : y
6. CC(C)N1C(=O)/C(=C2\SC(=S)N(C(C)C)C2=O)SC1=S : n
7. CCCC1C(C(=O)OCC)=C(N)Oc2cc(O)ccc21 (stereo unspecified) : n
8. O=C(CCl)n1nnnc1Cc1ccccc1 : n
9. O=C(NC1CCN(Cc2ccccc2)CC1)c1cc(-c2cccnc2)nc2ccc(Cl)cc12 : n
10. Cc1cc(NC(=O)Nc2cc(Cl)ccc2C)no1 : n
11. O=C(CN1C(=O)/C(=C/c2ccco2)SC1=S)NCCc1c[nH]c2ccc(F)cc12 : n

* * *

Tested on: MDA-MB-468 breast
Protocol: NCI-60 one-dose screen, 48 h (100 = growth as untreated, 0 = no growth, -100 = all killed)
Condition Context: 10 µM unless noted
Compounds without any hit were thinned out: in the full panel of roughly 83,000, 20% have a hit.
Listed below: growth values for each entry.
Measured Endpoint: growth (%)

1) CCN(CC)c1ccc(/C=C/C=C2\NC(=O)NC2=O)cc1 : -5.35
2) CCOC(=O)c1cnn2c3ccccc3n(S(=O)(=O)c3ccc(OC)cc3)c12 : -12.1
3) COc1ccccc1CNC(=O)C1c2ccccc2C(=O)N(CC(C)C)C1c1cccs1 (stereo not given) : 65.7
4) CCCCN(CCCC)c1ccc(C(=N)c2ccc(N(C)C)cc2)cc1 : -76.5
5) O=C(N/N=C/C[C@@H]1[C@@H](/C=C/[C@@H](O)COc2cccc(Cl)c2)[C@H](O)C[C@@H]1O)c1ccncc1 : 97.9

* * *

Tested on: MDA-MB-468 breast
Protocol: NCI-60 one-dose screen, 48 h (100 = growth as untreated, 0 = no growth, -100 = all killed)
Condition Context: 10 µM unless noted
Compounds without any hit were thinned out: in the full panel of roughly 83,000, 20% have a hit.
Returns: string. Value is Y if measured growth is below 70%, and N if it is greater than or equal to it.

1. COc1ccc2c(c1)[nH]c(=O)c1c3cccc(F)c3cn21 : Y
2. NC(=O)C1CCCN(Cc2c[nH]c3ccccc23)C1 (stereo not given) : N
3. COc1ccc(/C(C)=C(\c2ccc(Cl)cc2)c2ccc(OCCN)cc2)cc1 : Y
4. C=C1C(=O)O[C@H]2[C@H]1CC/C(C(=O)NCCCCCNC(=O)/C1=C/CC[C@@]3(C)O[C@H]3[C@H]3OC(=O)C(=C)[C@@H]3CC1)=C\CC[C@@]1(C)O[C@@H]21 : N
5. COc1cc2c(cc1NC(=O)C(F)(F)F)-c1ccc(NC(=O)C(F)(F)F)cc1C2 : Y
